subject-of-test: T1, ABH2 R110A (human, UniProt Q6NS38 1-261, R110A)
T1 sequence: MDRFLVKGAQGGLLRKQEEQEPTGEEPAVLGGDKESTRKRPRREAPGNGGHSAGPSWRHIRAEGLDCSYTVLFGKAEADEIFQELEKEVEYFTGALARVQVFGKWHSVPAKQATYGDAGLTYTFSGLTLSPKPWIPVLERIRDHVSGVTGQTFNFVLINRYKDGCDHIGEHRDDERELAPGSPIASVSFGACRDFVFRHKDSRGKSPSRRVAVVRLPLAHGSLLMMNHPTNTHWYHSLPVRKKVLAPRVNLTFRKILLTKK
method-notes: EMSA; 0.5 mM αKG, 10 mM Mg2+, 2 mM ascorbate; 50 mM Tris-HCl pH 8.0, 50 mM KCl, 10 mM MgCl2, 0.5 mM αKG, 2 mM sodium ascorbate; 1.2 µM DNA, 0.4-12.8 µM protein; 10 min 37 °C then 5 min on ice; 10% native PAGE, 0.5x TBE, 4-8 °C; Hill fit
condition-label: protein: recombinant; tags: N-terminal His6; label: 5'-FAM on strand 1; blunt
measurement-label: pKd
Just so you know, pKd here is -log10 of the concentration in molar units; reply with that number alone.

QUERY: Record request: pKd value, item m3C dsDNA (dsDNA, N3-methylcytosine (m3C) at position 12 of strand 1) DNA 1: AGTTCAATGATCTTCAT DNA 2: ATGAAGATCATTGAACT
RESULT: 5.40

QUERY: Record request: pKd value, item m1A dsDNA (dsDNA, N1-methyladenine (m1A) at position 10 of strand 1) DNA 1: AGTTCAATGATCTTCAT DNA 2: ATGAAGATCATTGAACT
RESULT: 5.47

From: paper PMC12295762
